Test system: LOX IMVI melanoma
Test: NCI-60 one-dose screen, 48 h (100 = growth as untreated, 0 = no growth, -100 = all killed)
Particulars: 10 µM unless noted
About 83,000 compounds went through this panel and 20% of them were active in at least one assay; those are over-represented in the sample as a whole.
Parameter: growth (%)
Answers are plain numbers, in %.

COC(=O)c1ccc2[nH]c(O)c(C(=Nc3ccc(N(C)C(=O)CN4CCN(C)CC4)cc3)c3ccc(CCO)cc3)c2c1; 37.5
CCCCCCCCCc1cc[n+](CC(=O)c2ccc([N+](=O)[O-])cc2)cc1; -77.2
COc1cc(-c2nn(-c3ccc(NC(=O)Nc4cc(C(F)(F)F)cc(C(F)(F)F)c4)cc3)cc2-c2ccncc2)ccc1Cl; -1.69
Cc1nc2ccccc2c(=O)n1-c1cccc(OCc2cn(-c3cccc(O)c3)nn2)c1; 94.6
COC(=O)c1ccc2[nH]c(O)c(C(=Nc3ccc(N(C)C(=O)CN4CCN(C)CC4)cc3)c3ccc([N+](=O)[O-])cc3)c2c1; 46.2

Alright, here's another molecule for you.
Q. Lab note: need growth for `O=C(Nc1ccc(Cl)c(Cl)c1)O/N=C\c1c(Cl)ccc([N+](=O)[O-])c1Cl` on LOX IMVI melanoma, anyone have it?
A. -82.1
